ASSAY_SYSTEM: T1, hCD22 fragment Bin 6, IVR6 (aa476-575), displayed on yeast cells (human, UniProt P20273 495-594)
T1 construct: range 476-575; Range is counted on the mature ECD, not on the UniProt entry; on P20273 it would be 495-594 (my arithmetic); also called CD22 Sub-Domain 6; not shown: Aga2-HA display fusion partner of vector pPNL6; MYC tag
T1 sequence (looked up): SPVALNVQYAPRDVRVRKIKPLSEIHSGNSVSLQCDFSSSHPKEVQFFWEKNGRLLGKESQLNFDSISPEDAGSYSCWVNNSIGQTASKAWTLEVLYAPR
PROCEDURE_DETAILS: yeast display cell ELISA, heat denatured cells (80 C, 30 min)
VALUE_KIND: Heat Inactivated CD22 OD (OD450)
Response body: numeric value in OD450, unit text excluded.

>  <BINDER>
hCD221ug-36 (VHH, single biotin at the VHH C-terminal (biotinylation signal sequence), llama VHH, expressed in E. coli TG1, IMAC purified, monomeric SEC fraction; also called VHH # 22; 4-hCD22 1ug-36) VHH: EVQLVDSGGGLVQAGGSLRVSCEASGITFSRAAMGWYRQRPGKERERVAVVNSDSSTIYADSVKGRFTISRDNAKNTVYLQMNSLEPEDTAVYYCWSPGFGSYWGQGTQVTVSS

>  <UNIT_INFO>
OD450

>  <Heat Inactivated CD22 OD>
3.5

$$$$
>  <BINDER>
hCD22pas-64 (VHH, single biotin at the VHH C-terminal (biotinylation signal sequence), llama VHH, expressed in E. coli TG1, IMAC purified, monomeric SEC fraction; also called VHH # 25; 7-hCD22 pas-64) VHH: QVQLVESGGGLVQAGGSLRLSCAASGSTFSLNTMAWYRQAPGNQREYVAAASSDGYTNYADSVRGRFTISRDNDKNTMYLQMNSLRPEDTAVYYCTWGTGRFADYIYWGQGTQVTVSS

>  <UNIT_INFO>
OD450

>  <Heat Inactivated CD22 OD>
2.04

$$$$
>  <BINDER>
hCD221ug-80 (VHH, single biotin at the VHH C-terminal (biotinylation signal sequence), llama VHH, expressed in E. coli TG1, IMAC purified, monomeric SEC fraction; also called VHH # 1; 2-hCD22 1ug-80) VHH: QVQLVESGGGLVQPGGSLRLSCTFSGFTLDYYVMVWFRQAPGKEREAVSCITSDGVTYYADSVKGRFTISRDNAKNTVYLQMNRVKPEDTAVYYCAVDKPFYDGGIQYTCPVDFDSWGQGAQVTVSS

>  <UNIT_INFO>
OD450

>  <Heat Inactivated CD22 OD>
2.62

$$$$

Next up:
Answer with the recorded Heat Inactivated CD22 OD of hCD221ug-13 (VHH, single biotin at the VHH C-terminal (biotinylation signal sequence), llama VHH, expressed in E. coli TG1, IMAC purified, monomeric SEC fraction; also called VHH # 21; 1-hCD22 1ug-13) VHH: QVQLVESGGGLVQAGDSLRLSCAGSGGSFSSVTMAWFRQAPGKDREFVAAITWSSPSTYYADSVKGRFTISRDNAKNTVYLQMNSLKPEDTAVYYCAGGRTGRGTSADTDEYNYWGQGTQVTVSS only.
0.272
